MEASUREMENT_PARAMETERS: 293.15 K; 25000 kPa; Liquid; Vibrating tube method
QUANTITY_KIND: mass density (kg/m3)

CCCCCOCCCCC [dipentyl ether] ... 801.23
CC(C)OC(C)C [diisopropyl ether] ... 750.29
CCCOCCC [dipropyl ether] ... 771.01
CCCCOC [butyl methyl ether] ... 769.27
CCOC(C)(C)C [2-ethoxy-2-methylpropane] ... 765.92
CC(C)CCOCCC(C)C [di-(3-methylbutyl) ether] ... 794.08
COC(C)(C)C [2-methoxy-2-methylpropane] ... 765.77
CCCCOCC [butyl ethyl ether] ... 772.75
